# method.description: Catalepsy in rats (IP), modified Tedeschi procedure
# Format: in vivo, rat
# test.context: rat, in vivo; IP administration in rats; as free base (Table 7)
measured.metric: ED50 (mg/kg)
Answers are plain numbers, in mg/kg.

Entry under review: O=C(NC1CCN(C2CCCCC2)C1)c1ccc([N+](=O)[O-])cc1 (stereo not shown) . Reported ED50? 28
